Target: Neu5Ac(a2-3)Gal(b1-3)[Fuc(a1-4)]GlcNAc
Assay: glycan array binding signal (z-score within array); higher = stronger binding
Conditions: glycan notation: IUPAC condensed, linker removed
Only a selection was taken, and the strongest signals are over-represented in it overall.
Each item that follows carries a reported glycan array binding signal (z-score).
Give only the figure.

Reference set, count: 2
>>> recordedmeasurement("FaeGac (Escherichia coli) (protein) WMTGDFNGSVDIGGSITADDYRQKWEWKVGTGLNGFGNVLNDLTNGGTKLTITVTGNKPILLGRTKEAFATPVTGGVDGIPHIAFTDYEGASVVLRKPDGETNKNGLAYFVLPMKNAGGTKVGSVKVNASYAGVLGRGGVTSADGELLSLFADGLSSIFYGGLPRGSELSAGSAAAARTKLFGSLSRDDILGQIQRVNANVTSLVDVAGSYRENMEYTDGNVVSAAYALGIANGQTIEATFNQAVTTSTQWSAPLNVAITYY")
0.445
>>> recordedmeasurement("CFEM-CGl (Candida glabrata), Q6FRS0 (protein) VLATPPACLLACVAQVSKQSSQCHTLNQVGCFCENENTAIKNCLDSICPNGNSDAAYTAFKNSCGDVGKAVASV")
-0.12

Note: attention shifts to another entry.
Pwp1 (Candida glabrata) (protein) MGSSHHHHHHSSGLVPRGSHMASANPISITNVCQFPDNWARTAGFQATTVRLGLTIASNTYKELLNYPGLFNFATQKATVTQPNFSISGFPFFTGLYGLTVWPINLLVELQGYFVPPESGNYTFTLQGSDDAAILFFANPSTFACGSQNDWPQPREADITVTDTLVPSRTLYLVKGVAYPIRIAYYNGSGDGKLNVSFKDPSGTTHTDWKGYVWQYSNTCSTCTYT yielded glycan array binding signal (z-score) of -1.74
